Biological target: I-Ag7 (Mus musculus, UniProt P04228+Q31135)
Sequence (P04228 24-256, one chain of several): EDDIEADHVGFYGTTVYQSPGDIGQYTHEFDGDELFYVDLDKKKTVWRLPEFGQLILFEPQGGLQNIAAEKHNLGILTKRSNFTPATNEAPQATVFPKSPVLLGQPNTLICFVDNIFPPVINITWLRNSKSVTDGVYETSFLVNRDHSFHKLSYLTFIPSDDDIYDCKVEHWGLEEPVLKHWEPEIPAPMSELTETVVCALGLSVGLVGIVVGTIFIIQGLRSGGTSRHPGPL
Settings: competition with biotinylated HEL 10-23; cysteines substituted by alanine; read-out: IC50 (nM), binding to I-A^g7
Ends that are not written are not given here.

[
  {
    "substance": "TSIASLYQLENYAN-NH2 [73-86, T S I A S L Y Q L E N Y A N]",
    "IC50 [nM]": 10000
  },
  {
    "substance": "GAGSLQPLALEGSLQ-NH2 [49-63, G A G S L Q P L A L E G S L Q]",
    "IC50 [nM]": 1000
  },
  {
    "substance": "EALYLVAGERGFFYT-NH2 [13-27, E A L Y L V A G E R G F F Y T]",
    "IC50 [nM]": 4000
  },
  {
    "substance": "ERGFFYTPKTRREAE-NH2 [21-35, E R G F F Y T P K T R R E A E]",
    "IC50 [nM]": 1000
  },
  {
    "substance": "FYTPKTRREAEDLQV-NH2 [25-39, F Y T P K T R R E A E D Q L V]",
    "IC50 [nM]": 1000
  }
]

Origin of the recorded values: patent US8075899B1
